Where do these numbers come from? They come from patent US20230002757A1.

Target: T1, EGFR on 293T-EGFR cells (293T cells negative for BCMA expression) (UniProt P00533 25-1210, limits assumed)
T1 construct: whole, on cells; negative control cells; that they carry EGFR is read from the label only
Test: FACS on 293T-EGFR cells (BCMA negative); note: test concentration or dose not given here
# MFI per entry

binder	MFI (MFI)
NBL507-A2L1-P1R2-1C1-(273)-PME207-SEQF_E11 (VHH, purified VHH) VHH: QVQLVESGGGLVHPGGSLRLDCAVSERIASFNVMGWYRQAPGQQREVVATITSVGRTYYADSVKGRFTIAKDNDKNTYLQMNSLKPEDTAVYYCKAVIVGTYDTEYWGQGTLVTVSS	222
NBL507-A1L1-P1R2-1B6-(31)-PME207-SEQF_G04 (VHH, purified VHH) VHH: QVQLVESGGGLVQPGGSLRLSCAASGFTFSPSAMSWARQAPGKGLEWVSGIYSDGSTYYRDSVKGRFTISRDNARNMVYLQMNSLKPEDTAVYYCALGAMREGVYSDLLGQGTQVTVSS	216
